# Lookup of reported normalized growth keyed by entry
Experiment: chemical genetic growth profiling, strain panel (AID 1159580);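 further: tested at 20 µM; growth read once vehicle control cultures reached saturation at 30 °C; 1 = growth at the plate median or of vehicle wells; lower values mean less growth of the strain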
Conditions: S. cerevisiae deletion strains, growth OD, locus YFL029C, strain CAK1, active compounds read low
About 2,000 (36%) of roughly 5,500 compounds were called active. Not shown: some 18% with an inconclusive outcome. The list shows a part of the results.

Compound	normalized growth
COC(=O)C1=C(C)NC(C)=C(C(=O)OC)C1c1ccc(Cl)cc1Cl	0.969
CC(C)c1ccc(NC(=S)NC(=O)c2ccccc2)cc1	0.953
Cc1c2c(=O)[nH]ncc2c(-c2ccccc2)n1-c1ccc([N+](=O)[O-])cc1	0.977
CCOc1ccc(/C=C(\C)[N+](=O)[O-])cc1OC	0.97
Cn1c(CSCCOc2ccccc2)nnc1SCc1ccc(Cl)cc1Cl	0.99
CCOC(=O)C1=C(N)OC2=C(C(=O)CC(C)(C)C2)C1c1ccc(Cl)cc1Cl (stereo unspecified)	0.981
O=[N+]([O-])/C=C/c1ccc(F)cc1	0.0948
O=C(NC(=S)Nc1cccc(C(F)(F)F)c1)c1ccc2nonc2c1	0.961
OC(CNCc1ccc(Cl)cc1)CO/N=C\C1=C(Cl)c2cc(Cl)ccc2OC1 (stereo unspecified)	0.963
FC(F)(F)c1cccc(NNC(=S)Nc2ccccc2)c1	1
CSc1ccc(/C=C(\C)[N+](=O)[O-])cc1	0.0921
